Test system: P. aeruginosa (IFO 3445)
Protocol Text: Minimum inhibitory concentration, standard method of the Japan Society of Chemotherapy
Format: cell-based
Measurement Context: Pseudomonas aeruginosa, IFO3445
So basically: is MIC under 3 µg/mL? Then yes. Not under? Then no.

I'd appreciate it if you could check whether Nc1c(F)c(N2CCNCC2)c(F)c2c1c(=O)c(C(=O)O)cn2C1COC1 has MIC smaller than 3 µg/mL. yes

Repeat with NCC1CCN(c2c(F)c(N)c3c(=O)c(C(=O)O)cn(C4COC4)c3c2F)C1 (stereo not shown) no

Same for CN(C)C1CCN(c2nc3c(cc2F)c(=O)c(C(=O)O)cn3C2COC2)C1 (stereo not shown) no

Do the same for CN(C)NC1CCN(c2c(F)c(N)c3c(=O)c(C(=O)O)cn(C4COC4)c3c2F)C1 (stereo not shown) please yes

// same read-out, input: NC1CN(c2cc3c(cc2F)c(=O)c(C(=O)O)cn3C2COC2)C1 no

What do we get for Nc1c(F)c(N2CCSCC2)c(F)c2c1c(=O)c(C(=O)O)cn2C1COC1 ? no

Likewise for C[C@H]1CN(c2c(F)c(N)c3c(=O)c(C(=O)O)cn(C4COC4)c3c2F)C[C@H]1N (relative stereo) ? yes

Record: Nc1c(F)c(N2CCOCC2)c(F)c2c1c(=O)c(C(=O)O)cn2C1COC1 no

Now this one: CN[C@@H]1CN(c2c(F)cc3c(=O)c(C(=O)O)cn(C4COC4)c3c2F)C[C@H]1C (relative stereo) yes

Lookup C[C@@H]1CN(c2c(F)cc3c(=O)c(C(=O)O)cn(C4COC4)c3c2F)C[C@H]1N.O=C(O)C(F)(F)F (relative stereo) yes

Now try O=C(O)c1cn(C2COC2)c2cc(N3CCC(O)C3)c(F)cc2c1=O (stereo not shown) . no

Another molecule to look at: CN1CCN(c2nc3c(cc2F)c(=O)c(C(=O)O)cn3C2COC2)CC1 yes

Next molecule up: O=C(O)c1cn(C2COC2)c2nc(N3CCSC3)c(F)cc2c1=O no

Repeat with CCNCC1CCN(c2c(F)c(N)c3c(=O)c(C(=O)O)cn(C4COC4)c3c2F)C1 (stereo not shown) no

Try CC1CN(c2c(F)cc3c(=O)c(C(=O)O)cn(C4COC4)c3c2F)CC(C)N1 (stereo not shown) next. no

Please do the same for O=C(O)c1cn(C2COC2)c2c(F)c(N3CCCC3)c(F)cc2c1=O as well. yes

----------
System: E. coli NIH JC-2 (IFO 12734)
Please note: MIC exactly at 0.4 µg/mL is label 0. Only values below 0.4 µg/mL get label 1.

Regarding CC1CN(c2c(F)cc3c(=O)c(C(=O)O)cn(C4COC4)c3c2F)CCN1 (stereo not shown) , kindly confirm whether its MIC is beneath 0.4 µg/mL. label 1

Lookup Nc1c(F)c(N2CCOCC2)c(F)c2c1c(=O)c(C(=O)O)cn2C1COC1 label 0

Entry CNCC1CCN(c2c(F)cc3c(=O)c(C(=O)O)cn(C4COC4)c3c2F)C1 (stereo not shown) please label 0

Request: CO[C@@H]1CN(c2c(F)cc3c(=O)c(C(=O)O)cn(C4COC4)c3c2F)C[C@H]1N (relative stereo) label 0

// repeat for CCNCC1CCN(c2c(F)cc3c(=O)c(C(=O)O)cn(C4COC4)c3c2OC)C1 (stereo not shown) and report label 0

Repeat for the following compound: C[C@H]1CN(c2c(F)c(N)c3c(=O)c(C(=O)O)cn(C4COC4)c3c2F)C[C@H]1N (relative stereo) label 1

Continue with O=C(O)c1cn(C2COC2)c2c(F)c(N3CCNCC3)c(F)cc2c1=O label 1

----------
Tested on: P. aeruginosa (IFO 3445)
Protocol Text: Minimum inhibitory concentration, standard method of the Japan Society of Chemotherapy
Assay type: cell-based
Measurement Context: Pseudomonas aeruginosa, IFO3445
Quantity Kind: MIC (µg/mL)
The answer is to be given in µg/mL; state only the numeric part.

// lookup MIC for COc1c(N2CCNCC2)c(F)cc2c(=O)c(C(=O)O)cn(C3COC3)c12 [Compound 81] 3.13

Could you do the same for CO[C@@H]1CN(c2c(F)cc3c(=O)c(C(=O)O)cn(C4COC4)c3c2F)C[C@H]1N (relative stereo) [Compound 85] , please? 6.25

Likewise for CC(=N)N1CCN(c2c(F)c(N)c3c(=O)c(C(=O)O)cn(C4COC4)c3c2F)CC1 [Compound 109] ? 3.13

----------
Reported log10(MIC), E. coli NIH JC-2 (IFO 12734).
Parameter value (number): base-10 log of MIC in µg/mL.

Fill in: log10(MIC) of CN(C)C1CCN(c2cc3c(cc2F)c(=O)c(C(=O)O)cn3C2COC2)C1 (centres unmarked) is ___ -0.41

Same thing, different compound: CN(C)CC1CCN(c2cc3c(cc2F)c(=O)c(C(=O)O)cn3C2COC2)C1 (centres unmarked) -0.41

And for NC1CCN(c2c(F)cc3c(=O)c(C(=O)O)cn(C4COC4)c3c2F)C1 (centres unmarked) ? -0.41

Then what about the compound NC1CN(c2c(F)cc3c(=O)c(C(=O)O)cn(C4COC4)c3c2F)C1 ? -0.41

Query O=C(O)c1cn(C2COC2)c2nc(N3CCSC3)c(F)cc2c1=O next -0.11

// same read-out, input: O=C(O)c1cn(C2COC2)c2c(F)c(N3CCCC3)c(F)cc2c1=O -0.41

Now consider O=C(O)c1cn(C2COC2)c2cc(N3CCNCC3)c(F)cc2c1=O . -0.41

What do you have for Nc1c(F)c(N2Cc3ccccc3C2)c(F)c2c1c(=O)c(C(=O)O)cn2C1COC1 ? -0.11

Also C[C@H]1CN(c2c(F)cc3c(=O)c(C(=O)O)cn(C4COC4)c3c2F)C[C@H]1N (relative stereo) , if possible. -1.00

Could you do the same for CN(C)NC1CCN(c2c(F)c(N)c3c(=O)c(C(=O)O)cn(C4COC4)c3c2F)C1 (centres unmarked) , please? -1.00

Now this one: C[C@@H]1CN(c2c(F)cc3c(=O)c(C(=O)O)cn(C4COC4)c3c2F)C[C@H]1N.O=C(O)C(F)(F)F (relative stereo) -0.41

And NCC1CCN(c2c(F)c(N)c3c(=O)c(C(=O)O)cn(C4COC4)c3c2F)C1 (centres unmarked) ? -0.11

Please answer likewise for CCNC1CCN(c2c(F)cc3c(=O)c(C(=O)O)cn(C4COC4)c3c2OC)C1 (centres unmarked) 0.19

Same question for C[C@@H]1CN(c2c(F)c(N)c3c(=O)c(C(=O)O)cn(C4COC4)c3c2F)C[C@H]1N (relative stereo) please. -1.00

Okay, and COc1c(N2CCC(N(C)C)C2)c(F)cc2c(=O)c(C(=O)O)cn(C3COC3)c12 (centres unmarked) ? 0.19

Try this compound too: CN[C@@H]1CN(c2c(F)cc3c(=O)c(C(=O)O)cn(C4COC4)c3c2F)C[C@H]1C (relative stereo) -0.70

What do we get for O=C(O)c1cn(C2COC2)c2c(F)c(N3CC=CC3)c(F)cc2c1=O ? -0.41

# repeat for O=C(O)c1cn(C2COC2)c2c(F)c(N3CC(O)C3)c(F)cc2c1=O -0.11

Also, O=C(O)c1cn(C2COC2)c2c(F)c(N3CCSCC3)c(F)cc2c1=O please. -0.11

Now the same for CCNC1CCN(c2c(F)c(N)c3c(=O)c(C(=O)O)cn(C4COC4)c3c2F)C1 (centres unmarked) -0.11

Same read-out for NC1CCN(c2cc3c(cc2F)c(=O)c(C(=O)O)cn3C2COC2)C1 (centres unmarked) ? -0.41

What about O=C(O)c1cn(C2COC2)c2c(F)c(N3Cc4ccccc4C3)c(F)cc2c1=O ? -0.41

What do we get for CN1CCN(c2cc3c(cc2F)c(=O)c(C(=O)O)cn3C2COC2)CC1 ? -0.70

----------
Test system: P. aeruginosa (IFO 3445)
Protocol Text: Minimum inhibitory concentration, standard method of the Japan Society of Chemotherapy
Format: cell-based
Measurement Context: Pseudomonas aeruginosa, IFO3445
Quantity Kind: MIC
A bare number is not enough; add the unit after it.

What value of MIC has been reported for the following compound? O=C(O)c1cn(C2COC2)c2nc(N3CCCC3)c(F)cc2c1=O [Compound 72] 3.13 µg/mL

Item: CN(C)C1CCN(c2c(F)cc3c(=O)c(C(=O)O)cn(C4COC4)c3c2F)C1 (stereo not drawn) [Compound 19] 3.13 µg/mL

Again, but for NC1CN(c2c(F)cc3c(=O)c(C(=O)O)cn(C4COC4)c3c2F)C1 [Compound 48] 3.13 µg/mL

Reference source: patent US5407932A
